Origin of measurements: ChEMBL document CHEMBL4368872

Please go through the items and note down their inhibition (INH).
Tested on: Salmonella typhimurium
protocol description: Antimutagenic activity against Salmonella typhimurium TA100 assessed as inhibition of NaN3-induced mutation at 50 ug/plate preincubated for 30 mins followed by top agar addition and measured after 48 hrs in presence of liver S9 fraction by Ames test relative to control
Type: organism-based
condition set: salmonella enterica subsp. enterica serovar typhimurium, s9, 48 h
Response body: numeric value in %, unit text excluded.

// assay Salmonella typhimurium, entry `Cc1cccc(C)c1OCC(=O)N[C@H](C)CO` , inhibition (INH) value = 57

// assay Salmonella typhimurium, entry Cc1cccc(C)c1OCC(=O)NCC(O)c1ccccc1 (centres undefined) , inhibition (INH) value = 17

// assay Salmonella typhimurium, entry `CC[C@@H](CO)NC(=O)COc1c(C)cccc1C` , inhibition (INH) value = 26

// assay Salmonella typhimurium, entry CCC(O)CNC(=O)COc1c(C)cccc1C (centres undefined) , inhibition (INH) value = 21
